# system: T1, human TSH receptor (full length), coated on tubes (human, UniProt P16473 22-764)
# T1 construct: TSHR coated tubes as described in WO2004/050708A2; The receptor is full length and held on plastic tubes through a mouse MAb to the TSHR; also called thyroid stimulating hormone receptor
# test: inhibition of 125I-K1-70 Fab (competitor) binding to TSHR coated tubes; 0.03 µg/mL in assay buffer
# Procedure: Binding inhibition assays were carried out using TSHR coated tubes as described in WO2004/050708A2. […] After aspiration, the tubes were washed and 100 μL of ¹²⁵I-labelled protein (5×10⁴ cpm) added and incubated for 1 hour at room temperature with shaking. The tubes were then aspirated, washed and counted in a gamma counter. Inhibition of labelled protein binding was calculated as 100×[1−(cpm bound in the presence of test material/cpm bound in the presence of control material)].
attribute measured: Inhibition of binding (%)
A number alone suffices; assume %.

{"binder": "K1-18 Fab (Fab, V domains shown) VH: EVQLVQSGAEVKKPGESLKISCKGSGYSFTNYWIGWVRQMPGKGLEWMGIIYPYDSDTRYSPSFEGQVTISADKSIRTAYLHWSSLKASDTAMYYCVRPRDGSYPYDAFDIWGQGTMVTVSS VL: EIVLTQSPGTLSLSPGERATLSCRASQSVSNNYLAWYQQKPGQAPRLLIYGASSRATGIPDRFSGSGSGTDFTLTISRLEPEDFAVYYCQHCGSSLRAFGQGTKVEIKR", "unit annotation": "%", "Inhibition of binding (%)": 38.8}
{"binder": "K1-18 IgG (antibody, V domains shown, Human IgG1 kappa purified from hetero-hybridoma supernatant; also called human monoclonal autoantibody to the TSHR with TSH agonist activity) VH: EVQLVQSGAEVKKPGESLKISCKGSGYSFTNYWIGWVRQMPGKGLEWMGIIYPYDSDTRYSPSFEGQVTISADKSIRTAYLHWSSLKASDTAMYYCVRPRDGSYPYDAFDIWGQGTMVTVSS VL: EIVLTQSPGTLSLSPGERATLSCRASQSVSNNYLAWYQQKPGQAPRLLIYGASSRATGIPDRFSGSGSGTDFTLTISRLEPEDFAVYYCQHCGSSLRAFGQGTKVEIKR", "unit annotation": "%", "Inhibition of binding (%)": 63.1}

Inhibition of binding (%) lookup needed for K1-70 IgG (antibody, V domains shown, Human IgG1 lambda purified from hetero-hybridoma supernatant; also called human monoclonal autoantibody to the TSHR with TSH antagonist activity) VH: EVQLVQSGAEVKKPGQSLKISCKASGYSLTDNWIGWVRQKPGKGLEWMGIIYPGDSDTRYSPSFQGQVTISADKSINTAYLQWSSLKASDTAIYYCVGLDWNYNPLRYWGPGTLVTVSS VL: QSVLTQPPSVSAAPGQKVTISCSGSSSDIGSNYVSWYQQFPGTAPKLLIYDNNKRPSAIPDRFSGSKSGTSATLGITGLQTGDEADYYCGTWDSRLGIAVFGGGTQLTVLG , thanks.
89

Given the binder K1-70 Fab (Fab, V domains shown) VH: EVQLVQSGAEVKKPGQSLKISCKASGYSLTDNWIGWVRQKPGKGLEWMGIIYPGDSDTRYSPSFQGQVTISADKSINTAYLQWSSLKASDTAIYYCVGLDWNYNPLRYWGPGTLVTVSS VL: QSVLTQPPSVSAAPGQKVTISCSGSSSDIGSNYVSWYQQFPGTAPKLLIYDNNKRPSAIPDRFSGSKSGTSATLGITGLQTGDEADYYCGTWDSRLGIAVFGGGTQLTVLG , what is its reported Inhibition of binding (%)?
89
